Tested on: S. aureus (ATCC 25293)
protocolNotes: In vitro anti-S. aureus CFU assay
Format: cell-based, Staphylococcus aureus
statedConditions: peptide 0.032 mg/mL + ZnCl2 (0.9:1), 3 h, pH 5.4
Procedure: All microbes were grown at 37 °C in Tryptic Soy Broth (TSB; Biolife, Milan, Italy) or Tryptic Soy Agar plates (TSA, Biolife, Milan, Italy). Peptides were tested at a final concentration C = 0.128, 0.064, 0.032 mg/mL, in the presence or absence of ZnCl2 or CuCl2, at a M:L molar ratio 0.9:1. […]
Residues, ends and D or L forms follow the SMILES beside them.
outcomeMeasure: CFU decrease/increase with respect to untreated controls (%)
The reply should contain only the number, in %.

The measured CFU decrease/increase with respect to untreated controls that CC[C@H](C)[C@H](NC(=O)[C@H](C)NC(=O)[C@@H](N)C(C)C)C(=O)N[C@@H](C)C(=O)N[C@@H](CC(C)C)C(=O)N[C@@H](CCCCN)C(=O)N[C@@H](C)C(=O)N[C@@H](C)C(=O)N[C@@H](Cc1c[nH]cn1)C(=O)N[C@@H](Cc1ccc(O)cc1)C(=O)N[C@@H](Cc1c[nH]cn1)C(=O)N[C@H](C(=O)N[C@@H](Cc1c[nH]cn1)C(=O)N[C@@H](CCCCN)C(=O)N[C@@H](CCC(=O)O)C(N)=O)[C@@H](C)O [L3, VAIALKAAHYHTHKE-NH2] (H-VAIALKAAHYHTHKE-NH2) showed for S. aureus (ATCC 25293) is -6
